meta.source: patent US12441726B2

# study_target: UniProt P51532
# Sequence (P51532 whole entry): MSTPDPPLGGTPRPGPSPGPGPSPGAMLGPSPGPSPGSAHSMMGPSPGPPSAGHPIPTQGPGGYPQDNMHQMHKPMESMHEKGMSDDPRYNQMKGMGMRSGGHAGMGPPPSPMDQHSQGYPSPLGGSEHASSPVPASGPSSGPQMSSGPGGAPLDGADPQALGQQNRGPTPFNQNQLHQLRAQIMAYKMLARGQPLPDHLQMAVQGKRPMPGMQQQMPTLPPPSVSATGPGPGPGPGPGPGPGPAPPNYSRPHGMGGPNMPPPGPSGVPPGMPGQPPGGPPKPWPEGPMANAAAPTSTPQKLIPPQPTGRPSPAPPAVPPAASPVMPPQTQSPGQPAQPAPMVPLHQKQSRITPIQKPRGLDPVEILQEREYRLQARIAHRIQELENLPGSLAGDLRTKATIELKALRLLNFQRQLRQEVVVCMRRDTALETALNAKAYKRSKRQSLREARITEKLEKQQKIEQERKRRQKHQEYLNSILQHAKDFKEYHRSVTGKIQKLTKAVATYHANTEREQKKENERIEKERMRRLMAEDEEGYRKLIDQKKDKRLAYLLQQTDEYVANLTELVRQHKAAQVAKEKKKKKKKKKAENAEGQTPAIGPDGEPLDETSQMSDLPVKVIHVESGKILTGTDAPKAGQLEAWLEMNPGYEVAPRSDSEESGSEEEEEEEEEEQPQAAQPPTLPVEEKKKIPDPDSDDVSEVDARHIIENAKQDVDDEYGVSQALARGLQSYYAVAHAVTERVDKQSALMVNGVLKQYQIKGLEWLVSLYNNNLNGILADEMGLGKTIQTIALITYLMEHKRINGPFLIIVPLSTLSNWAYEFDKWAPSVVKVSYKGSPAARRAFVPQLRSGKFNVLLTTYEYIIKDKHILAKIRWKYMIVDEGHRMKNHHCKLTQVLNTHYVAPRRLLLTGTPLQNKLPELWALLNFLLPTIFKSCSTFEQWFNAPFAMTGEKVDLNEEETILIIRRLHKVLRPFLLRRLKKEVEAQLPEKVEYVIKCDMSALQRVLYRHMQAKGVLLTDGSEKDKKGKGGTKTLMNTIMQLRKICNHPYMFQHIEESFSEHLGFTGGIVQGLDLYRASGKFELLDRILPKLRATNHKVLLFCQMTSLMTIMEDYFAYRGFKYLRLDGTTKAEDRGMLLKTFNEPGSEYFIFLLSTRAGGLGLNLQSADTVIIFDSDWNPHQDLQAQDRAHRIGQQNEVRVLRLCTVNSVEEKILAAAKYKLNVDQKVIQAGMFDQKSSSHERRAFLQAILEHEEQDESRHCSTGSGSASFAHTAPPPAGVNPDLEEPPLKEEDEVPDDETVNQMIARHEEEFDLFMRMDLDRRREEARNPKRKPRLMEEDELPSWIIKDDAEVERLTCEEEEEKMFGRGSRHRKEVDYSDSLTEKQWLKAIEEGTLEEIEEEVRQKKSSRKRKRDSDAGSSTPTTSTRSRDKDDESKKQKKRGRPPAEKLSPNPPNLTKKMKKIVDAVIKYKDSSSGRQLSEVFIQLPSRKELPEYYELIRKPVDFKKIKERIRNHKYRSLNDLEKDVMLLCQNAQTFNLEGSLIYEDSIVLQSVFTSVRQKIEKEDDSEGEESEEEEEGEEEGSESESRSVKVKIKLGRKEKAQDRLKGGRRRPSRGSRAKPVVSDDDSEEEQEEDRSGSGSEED
# test_summary: ATPase catalytic activity assay (ADP-Glo), BRG-1
pIC50: −log10 of the molar value.
A collection of molecules and their measured pIC50

Study these solved cases before continuing.
| smiles_string | pIC50 |
| --- | --- |
| COc1nn(C)cc1-c1cnc2cnc(CNC(=O)c3ccc4c(c3)[C@](C)(F)COC4)cc2n1 | 6.00 to 6.30 |
| C[C@@]1(C#N)COCc2ccc(C(=O)NCc3cc(N4CC5(CCN(c6ccccc6)C5)C4)ccn3)cc21 | < 6.00 |
| C[C@@]1(F)COCc2ccc(C(=O)NCc3cc4nc(-c5ccnc(N6CCC6)n5)sc4cn3)cc21 | 6.00 to 6.30 |

Lookup: pIC50 / UniProt P51532 / C[C@@]1(C#N)COCc2ccc(C(=O)NCc3cc4nc(-c5ccnc(N6CC7CC(C6)O7)n5)ccc4cn3)cc21
6.30 to 7.00

Observed pIC50 on UniProt P51532 for C[C@@]1(C#N)COCc2c(F)cc(C(=O)NCc3cc4nc(-c5ccccc5)ccc4cn3)cc21 , please.
6.00 to 6.30

Quick check: pIC50 on UniProt P51532, item C[C@@]1(F)COCc2ccc(C(=O)NCc3cc4cc(-c5cncc(N6CCC6)n5)ccc4cn3)cc21 ?
6.30 to 7.00
